Test system: CCRIS mutagenicity, Ames/micronucleus/aberration tests
protocol: CCRIS mutagenicity studies
run_conditions: Test System: CHINESE HAMSTER V-79; Strain/Indicator: V-79 (HPRT)/6-THIOGUANINE; Metabolic Activation: NONE
Calls of active or inactive are those of the source. No rule for the calls is given here.
Choose one outcome from this list and give only that: label 1 for active, label 0 for inactive

Answered examples (3):
O=C(c1ccccc1)[C@H]1O[C@H]1c1ccc(F)cc1	label 0
CCCCOCCO	label 1
CC(C)Oc1ccccc1OC(=O)N(C)N=O	label 1

(Q) Returns: the outcome recorded for `O=c1c(-c2ccc(O)cc2)coc2cc(O)cc(O)c12` in this assay.
(A) label 1

(Q) Would you mind telling me which call this test gave `O=C(O)c1cn(C2CC2)c2cc(N3CCNCC3)c(F)cc2c1=O` ?
(A) label 1

====

System: CCRIS mutagenicity, Ames/micronucleus/aberration tests
protocol: CCRIS mutagenicity studies
run_conditions: Test System: AMES SALMONELLA TYPHIMURIUM; Strain/Indicator: TA98; Metabolic Activation: RAT, LIVER, S-9, PHENOBARBITAL AND 5,6-BENZOFLAVONE; Method: PREINCUBATION
Calls of active or inactive are those of the source. How the calls were made is not given here.
Mark one answer only. Choices: true = active, false = inactive

Worked examples follow.
CC(C)(N=NC(C)(C)C(=N)N)C(=N)N	true
CC(=O)N[C@@H]1[C@@H](O[C@@H]2O[C@H](C(=O)O)[C@@H](O[C@@H]3O[C@H](CO)[C@@H](O)[C@H](O[C@@H]4O[C@H](C(=O)O)[C@@H](O)[C@H](O)[C@H]4O)[C@H]3NC(C)=O)[C@H](O)[C@H]2O)[C@H](O)[C@@H](CO)O[C@H]1O	false
O=C1C=C(Nc2ccccc2)C(=O)c2ccccc21	true
O=C1C=CC(=O)C(c2ccccc2)=C1	false
CC1=CC(=O)C(C(C)C)=CC1=O	false
COc1cc(OC)c2c(=O)c3cc(OC)ccc3oc2c1	false
O=C1C=CC(=O)c2ccccc21	false
CC(=O)c1cccc(N=[N+]([O-])c2ccc(N)c(C(C)=O)c2C)c1C	false

Next item in the queue.
(Q) Record lookup: outcome of this test for COC(=O)C1=C(C)NC(C)=C(C(=O)OCCc2ccc(N3CCN(C(c4ccccc4)c4ccccc4)CC3)cc2)C1c1cccc([N+](=O)[O-])c1 (centres undefined) ?
(A) false

====

System: CCRIS mutagenicity, Ames/micronucleus/aberration tests
protocol: CCRIS mutagenicity studies
run_conditions: Test System: AMES SALMONELLA TYPHIMURIUM; Strain/Indicator: TA100; Metabolic Activation: HAMSTER, LIVER, S-9, AROCLOR 1254; Method: PREINCUBATION
Calls of active or inactive are those of the source. How the calls were made is not given here.
Log the outcome using a class from active, inactive

OCCNCCO	inactive
Oc1ccccc1-c1ccccc1	inactive
Clc1ccccc1Cl	inactive
CCN(N=O)c1ccccc1	inactive
CC1(C)S[C@@H]2[C@H](NC(=O)COc3ccccc3)C(=O)N2[C@H]1C(=O)O	inactive

(Q) Fill in: this test's call for `Clc1cc(Cl)c(Cl)c(Cl)c1` is ___
(A) inactive

(Q) Call for entry `O=P(O)(O)O` :
(A) inactive

(Q) Query: recorded result category for `Brc1cccc(-c2ccccc2)c1` in this test
(A) inactive

(Q) Per the assay record, what outcome was assigned to `Cc1cccc(C)c1N` ?
(A) inactive

(Q) Can you look up the reported call for `Oc1c(Cl)c(Cl)c(Cl)c(Cl)c1Cl` for me?
(A) inactive

(Q) What call does the record list for `Brc1ccccc1-c1ccccc1` ?
(A) inactive

(Q) Hi, sorry to bother you, what did the test record for CC1CCC(C(C)CS)CC1S (stereo unspecified) ?
(A) inactive

(Q) Called result for `Brc1ccc(-c2ccccc2)cc1`
(A) inactive

(Q) What was the test verdict on `c1ccc(Nc2ccc3ccccc3c2)cc1` ?
(A) inactive

(Q) Assay outcome for `CN(C)c1ccccc1` : what was it?
(A) inactive

(Q) Hi team, can someone confirm the assay call for OCC1CO1 (stereo unspecified) ?
(A) active

====

Tested on: CCRIS mutagenicity, Ames/micronucleus/aberration tests
protocol: CCRIS mutagenicity studies
run_conditions: Test System: E. COLI; Strain/Indicator: WP2 UVRA; Metabolic Activation: MOUSE, LIVER, S-9; Method: STANDARD PLATE
Active and inactive are the calls of the source. No rule for the calls is given here.
I would appreciate it if you answered using one of these outcomes: active, inactive

Observe how each entry below is paired with its result.
COc1ccc(N)c(OC)c1	inactive
Cc1ccc2cc3c(ccc4ccccc43)c3c2c1CC3	inactive
CCN(N=O)c1ccccc1	inactive
COc1ccc(C(c2ccc(OC)cc2)C(Cl)(Cl)Cl)cc1	inactive
O=P(OCC(Br)CBr)(OCC(Br)CBr)OCC(Br)CBr (configuration not stated)	inactive

(Q) Answer briefly: the call reported for `Nc1ncc([N+](=O)[O-])s1` in this assay.
(A) inactive

(Q) Please share the test call associated with `CC(=O)Nc1ccc(C(=O)CCl)cc1` .
(A) inactive

====

Tested on: CCRIS mutagenicity, Ames/micronucleus/aberration tests
protocol: CCRIS mutagenicity studies
run_conditions: Test System: E. COLI; Strain/Indicator: WP2 UVRA; Metabolic Activation: NONE; Method: FLUCTUATION TEST
Active and inactive are the calls of the source. The rule behind the calls is not given here.
reported_metric: mutagenic call

ONc1ccc(-c2ccccc2)cc1	active; positive
O=C(NO)OCc1ccccc1	active; positive
CCCOC(=O)NO	active; positive

====

System: CCRIS mutagenicity, Ames/micronucleus/aberration tests
protocol: CCRIS mutagenicity studies
run_conditions: Test System: AMES SALMONELLA TYPHIMURIUM; Strain/Indicator: TA100; Metabolic Activation: NONE; Method: PREINCUBATION
The source made the active and inactive calls. The rule behind the calls is not given here.
Parameter call: string, one of active, inactive

Cc1cnc2ccccc2c1	inactive

(Q) # outcome recorded in this test, key = `C=C(C)C#N`
(A) inactive

(Q) Which outcome was assigned to `N#Cc1ccccc1` in this test?
(A) inactive

(Q) Could you please tell me the result logged for CC(O)C(C)O (stereo not given) in this assay?
(A) inactive

(Q) Outcome logged for `O=S(=O)(O)c1ccc(N=Nc2c(O)ccc3cc(S(=O)(=O)O)ccc23)cc1` in this assay:
(A) inactive

(Q) Tell me the assay call for `NCCNCCNCCNCCN` please.
(A) active

(Q) In this assay, the call recorded for CCN(CC)CCCC(C)Nc1c2ccc(Cl)cc2nc2ccc(OC)cc12 (stereo not given) was what?
(A) inactive

====

Test system: CCRIS mutagenicity, Ames/micronucleus/aberration tests
protocol: CCRIS mutagenicity studies
run_conditions: Test System: AMES SALMONELLA TYPHIMURIUM; Strain/Indicator: TA98; Metabolic Activation: NONE; Method: STANDARD PLATE
Activity calls are given as the source filed them. How the calls were made is not given here.
reported_metric: mutagenic call

The examples below pair each entry with its known result.
CCCCCC(=O)Cc1cc(O)cc2c1C(=O)Oc1cc(O)c(C(=O)O)c(CCCCC)c1O2	inactive; negative
O=S(=O)(Nc1ccc(Cl)cc1Cl)c1cccc2cccnc12	inactive; negative
CC/C(=C(/CC)c1ccc(OP(=O)(O)O)cc1)c1ccc(OP(=O)(O)O)cc1	inactive; negative
CC(=O)Nc1snc2ccccc12	inactive; negative
CCN(CC)CCNc1ccc(CO)c2sc3ccccc3c(=O)c12	active; positive

# input for lookup
The reported CCRIS mutagenicity, Ames/micronucleus/aberration tests mutagenic call of `O=[N+]([O-])c1cc([N+](=O)[O-])c2cccc3c2c1-c1ccccc1-3` is active; positive

====

System: CCRIS mutagenicity, Ames/micronucleus/aberration tests
protocol: CCRIS mutagenicity studies
run_conditions: Test System: AMES SALMONELLA TYPHIMURIUM; Strain/Indicator: TA98; Metabolic Activation: HAMSTER, LIVER, S-9, AROCLOR 1254 (30%); Method: PREINCUBATION
The source made the active and inactive calls. How the calls were made is not given here.
Please state which outcome applies, choosing from active, inactive

Completed entries (count: 6):
Nc1cccc(O)c1	inactive
C=C(C)C(=O)OCCCCCCCC	inactive
Cc1cccc(C)c1N	inactive
Cc1ccccc1Br	inactive
c1cc2c3c(c1)ccc1cccc(c13)C2	active
CC(CC(=O)O)C(=O)O (configuration not stated)	inactive

Here is another compound to look at.
(Q) Lab log entry: `S=P(N1CC1)(N1CC1)N1CC1` — outcome as called in the assay?
(A) inactive

====

System: CCRIS mutagenicity, Ames/micronucleus/aberration tests
protocol: CCRIS mutagenicity studies
run_conditions: Test System: AMES SALMONELLA TYPHIMURIUM; Strain/Indicator: TA98; Metabolic Activation: NONE; Method: STANDARD PLATE
Calls of active or inactive are those of the source. No rule for the calls is given here.
Please reply with one of these outcomes: yes (1) (active), no (0) (inactive)

Solved cases (6 shown):
O=C(O)CC(O)C(=O)O (configuration not stated)	no (0)
Nc1ccc(Cl)c(C(F)(F)F)c1	no (0)
CCN(CCC#N)c1ccc(N=Nc2c(Cl)cc([N+](=O)[O-])cc2Cl)cc1	yes (1)
CCCCOCCO	no (0)
Cc1ccc2nsc(NC(=O)C(Cl)Cl)c2c1	yes (1)
C=CC1CO1 (configuration not stated)	no (0)

(Q) Test call for this compound, please: `O=S(c1cc(Cl)cc(Cl)c1O)c1cc(Cl)cc(Cl)c1O`
(A) yes (1)

(Q) Assay result, entry `CCc1cccc2c(CCO)c[nH]c12` — outcome?
(A) no (0)

(Q) Tell me the recorded outcome of this test for `OCc1ccc2c(c1)-c1cccc3cccc-2c13` .
(A) no (0)

(Q) Hi, sorry to bother you, what did the test record for `CCCCC=O` ?
(A) no (0)

(Q) Look up the recorded call for `c1ccc(CNc2ncnc3nc[nH]c23)cc1` in this test.
(A) no (0)

(Q) // return assay outcome for `N/C(=N\O)c1cc(O)c(O)c(O)c1`
(A) no (0)
